Recorded values, source PubChem BioAssay.

test: JHH-DIPG-1 glioma cell viability, MIPE5.0 library, CellTiter-Glo luminescence, qHTS (AID 1347067); settings: JHH-DIPG-1 glioma viability, CellTiter-Glo ATP luminescence;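 further: cells exposed to compound for 48 hours before readout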
Records with an inconclusive call do not appear. Active and inactive are the calls of the source. Cut-off not given; nearly all actives show AC50 up to about 26 µM.
Could you please pick one outcome from this set? yes (1) (active), no (0) (inactive)

These solved cases illustrate the format of a correct answer.
molecule	group_label
OCCCNc1cc(-c2ccnc(Nc3cccc(Cl)c3)n2)ccn1	yes (1)
NC(CC1c2ccccc2Oc2ccccc21)(C(=O)O)C1CC1C(=O)O (centres undefined)	no (0)
Cc1cc(CS(=O)(=O)c2ccccc2)cc(OCc2ccc(CN3CCC[C@@H]3CO)cc2)c1	no (0)
Cn1ncc(Cl)c1-c1cc(C(=O)N[C@H](CN)Cc2ccc(F)c(F)c2)sc1Cl	yes (1)
O=C(Nc1ncc(-c2cc(C(F)F)nn2-c2c(Cl)cccc2Cl)s1)C1CC1	yes (1)

Req: Query: recorded result category for COC(=O)c1ccc2c(C(=Nc3ccc(N(C)C(=O)CN4CCN(C)CC4)cc3)c3ccccc3)c(O)[nH]c2c1 in this test
Resp: yes (1)

Req: Query: recorded result category for COCCn1c2c([n+](Cc3cnccn3)c1C)C(=O)c1ccccc1C2=O in this test
Resp: yes (1)

Req: Query: recorded result category for O=C(/C=C\n1cnc(-c2cc(C(F)(F)F)cc(C(F)(F)F)c2)n1)NNc1ccccn1 in this test
Resp: yes (1)

Req: Query: recorded result category for Cc1cc(Nc2cc(N3CCN(C)CC3)nc(Sc3ccc(NC(=O)C4CC4)cc3)n2)n[nH]1 in this test
Resp: yes (1)

----------
assay: viability loss in pontine glioma line – cell-based, SU-DIPG-XVII, MIPE5.0, CellTiter-Glo, qHTS, dose response (AID 1347060); conditions: CellTiter-Glo ATP luminescence;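 on AC50: cells exposed to compound for 48 hours before viability readout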
Results filed as inconclusive are left out. Calls of active or inactive are those of the source. Cut-off not given; nearly all actives show AC50 up to about 26 µM.
measured_parameter: AC50

compound	AC50
NC1=N[C@H]2[C@H](CS[C@H]2CCCCC(=O)O)N1	inactive
CCCc1cc(C)[nH]c(=O)c1CNC(=O)c1cc(-c2ccnc(N3CCN(C)CC3)c2)cc2c1cnn2C(C)C	inactive
COc1c(C)cc(NC(=O)c2nn(Cc3ccc(F)cc3)c3c2CN(C(=O)c2ccc[nH]2)C[C@]3(C)C(N)=O)cc1C	inactive
COc1cc(C)c(Sc2cnc(NC(=O)c3ccc(CNC(C)C(C)(C)C)cc3)s2)cc1C(=O)N1CCN(C(C)=O)CC1 (stereo not drawn)	10.5 µM (active)
C[C@@H]1CN(CC(=O)N2CC(C)(C)c3ncc(Cc4ccc(F)cc4)cc32)[C@@H](CN2CCOC[C@H]2C)CN1	inactive

CC#C[C@@H](CC(=O)O)c1ccc(OCc2cccc(-c3ccc(C(F)(F)F)cc3)c2)cc1 has a reported AC50 of inactive

COCCNCc1ccc(-c2cc3nccc(Oc4ccc(NC(=O)C5(C(=O)Nc6ccc(F)cc6)CC5)cc4F)c3s2)nc1 has a reported AC50 of 7.42 µM (active)

O=C([C@@H](Cc1cccc(C(F)(F)F)c1)NS(=O)(=O)c1cc(F)c2c(c1)CCNC2)N1CCCC1 has a reported AC50 of inactive

----------
test: viability loss in pontine glioma line – cell-based, SU-DIPG-XVII, MIPE5.0, CellTiter-Glo, qHTS, dose response (AID 1347060); conditions: CellTiter-Glo ATP luminescence;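 on AC50: cells exposed to compound for 48 hours before viability readout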
Inconclusive results are not listed. Calls of active or inactive are those of the source. No cut-off is given here; in the data, nearly all actives have AC50 up to about 26 µM.
Could you please pick one outcome from this set? yes (active), no (inactive)

These solved cases illustrate the format of a correct answer.
compound	group_label
C=CC(=O)Nc1cc(Nc2nccc(-c3cn(C)c4ccccc34)n2)c(OC)cc1N(C)CCN(C)C	yes
Cc1c(O)cccc1C(=O)NC(CSc1ccccc1)C(O)CN1CC2CCCCC2CC1C(=O)NC(C)(C)C (centres undefined)	yes
Cc1c(F)cccc1NC(=O)Nc1ccc(Cl)c(S(=O)(=O)[C@H]2CCCNC2)c1O	no
CCCCCCCN(CC)CCCC(O)c1ccc(NS(C)(=O)=O)cc1 (centres undefined)	no
CCCNS(=O)(=O)Nc1ncnc(OCCOc2ncc(Br)cn2)c1-c1ccc(Br)cc1	no

Then there is this compound:
Req: Query: recorded result category for C=C1[C@H](CO)[C@@H](O)C[C@@H]1n1cnc2c(=O)[nH]c(N)nc21 in this test
Resp: no
